tested on: BaF3; experiment: PROTAC activity at VHL/KIF5B-RET (unknown origin) expressed in mouse BaF3 cells assessed as induction of RET degradation at 1000 nM measured after 6 hrs by Western blot analysis relative to control; type: cell-based
Form field: Activity (one value per entry).
measured.quantity: Activity (%)

[
  {
    "mol": "COc1ccc(CN2C3CC2CN(c2ccc(-c4cc(-c5cnn(CCCCCCCCCCCCCCC(=O)N[C@H](C(=O)N6C[C@H](O)C[C@H]6C(=O)N[C@@H](C)c6ccc(-c7scnc7C)cc6)C(C)(C)C)c5)cn5ncc(C#N)c45)cn2)C3)cn1",
    "unit.abbreviation": "%",
    "endpoint.result": 20
  },
  {
    "mol": "COc1ccc(CN2C3CC2CN(c2ccc(-c4cc(-c5cnn(CCCCCCCCC(=O)N[C@H](C(=O)N6C[C@H](O)C[C@H]6C(=O)N[C@@H](C)c6ccc(-c7scnc7C)cc6)C(C)(C)C)c5)cn5ncc(C#N)c45)cn2)C3)cn1",
    "unit.abbreviation": "%",
    "endpoint.result": 39
  },
  {
    "mol": "COc1ccc(CN2C3CC2CN(c2ccc(-c4cc(-c5cnn(CCCCCCC(=O)N[C@H](C(=O)N6C[C@H](O)C[C@H]6C(=O)N[C@@H](C)c6ccc(-c7scnc7C)cc6)C(C)(C)C)c5)cn5ncc(C#N)c45)cn2)C3)cn1",
    "unit.abbreviation": "%",
    "endpoint.result": 51
  },
  {
    "mol": "COc1ccc(CN2C3CC2CN(c2ccc(-c4cc(-c5cnn(CCOCCOCCC(=O)N[C@H](C(=O)N6C[C@H](O)C[C@H]6C(=O)N[C@@H](C)c6ccc(-c7scnc7C)cc6)C(C)(C)C)c5)cn5ncc(C#N)c45)cn2)C3)cn1",
    "unit.abbreviation": "%",
    "endpoint.result": -5
  },
  {
    "mol": "COc1ccc(CN2C3CC2CN(c2ccc(-c4cc(-c5cnn(CCCCC(=O)N[C@H](C(=O)N6C[C@H](O)C[C@H]6C(=O)N[C@@H](C)c6ccc(-c7scnc7C)cc6)C(C)(C)C)c5)cn5ncc(C#N)c45)cn2)C3)cn1",
    "unit.abbreviation": "%",
    "endpoint.result": -11
  },
  {
    "mol": "COc1ccc(CN2C3CC2CN(c2ccc(-c4cc(-c5cnn(CCCCCCCCCCC(=O)N[C@H](C(=O)N6C[C@H](O)C[C@H]6C(=O)N[C@@H](C)c6ccc(-c7scnc7C)cc6)C(C)(C)C)c5)cn5ncc(C#N)c45)cn2)C3)cn1",
    "unit.abbreviation": "%",
    "endpoint.result": 32
  }
]
